Entries with reported MIC on Bacillus cereus

Past entries and their recorded results:
CC[C@H](C)[C@H](NC(=O)CNC(=O)[C@H](C)NC(=O)[C@H](Cc1ccc(O)cc1)NC(=O)[C@@H](NC(=O)[C@H](CC(C)C)NC(=O)[C@H](C)N)C(C)C)C(=O)N[C@@H](CCCCN)C(=O)N[C@@H](CCCCN)C(=O)N[C@H](C(=O)N[C@@H](C)C(=O)N[C@@H](Cc1ccccc1)C(=O)N[C@@H](CC(C)C)C(=O)N[C@@H](CCCCN)C(=O)N[C@H](C(=O)N[C@@H](CCC(N)=O)C(=O)N[C@@H](CCCCN)C(=O)N[C@@H](CS)C(=O)N[C@@H](CC(=O)O)C(=O)NCC(=O)O)C(C)C)[C@@H](C)O : ≥ 119 µM
CC[C@H](C)[C@H](NC(=O)[C@@H](NC(=O)[C@H](C)NC(=O)[C@H](Cc1ccccc1)NC(=O)[C@H](CC(C)C)NC(=O)CN)C(C)C)C(=O)N[C@@H](CCCCN)C(=O)N[C@@H](CCCCN)C(=O)N[C@H](C(=O)N[C@@H](C)C(=O)N[C@@H](CO)C(=O)N[C@H](C(=O)N[C@H](C(=O)N[C@@H](CCCCN)C(=O)NCC(=O)N[C@@H](CC(C)C)C(N)=O)[C@@H](C)CC)C(C)C)C(C)C : 15.2 µM
CSCC[C@@H]1NC(=O)[C@H](CC(C)C)NC(=O)[C@H](C)NC(=O)[C@H](CCCN=C(N)N)NC(=O)[C@H](Cc2ccccc2)NC(=O)[C@H](CC(C)C)NC(=O)CNC(=O)[C@H](CCCCN)NC(=O)[C@@H](NC(=O)[C@H](CCCN=C(N)N)NC(=O)[C@@H]2CCCN2C(=O)[C@@H](NC(=O)[C@H](CO)NC(=O)[C@H](Cc2ccc(O)cc2)NC(=O)[C@H](C)NC(=O)[C@@H](N)CCCCN)[C@@H](C)O)CSSC[C@@H](C(=O)N[C@@H](Cc2c[nH]c3ccccc23)C(=O)N[C@@H](CC(C)C)C(N)=O)NC1=O : 22.3 µM
CC[C@H](C)[C@H](NC(=O)[C@H](CO)NC(=O)CNC(=O)[C@H](C)NC(=O)[C@@H](NC(=O)[C@H](Cc1cnc[nH]1)NC(=O)CNC(=O)[C@H](C)NC(=O)[C@@H](NC(=O)[C@H](CCCCN)NC(=O)[C@H](CCCCN)NC(=O)[C@@H](NC(=O)[C@@H](NC(=O)[C@H](CC(=O)O)NC(=O)[C@H](Cc1ccccc1)NC(=O)[C@H](CC(C)C)NC(=O)CN)[C@@H](C)CC)C(C)C)[C@@H](C)CC)[C@@H](C)CC)C(N)=O : ≥ 57.5 µM
CC(C)C[C@H](NC(=O)[C@@H](N)Cc1ccccc1)C(=O)NCC(=O)N[C@H](C(=O)N[C@H](C(=O)N[C@@H](Cc1ccccc1)C(=O)N[C@@H](CCCCN)C(=O)N[C@@H](CCCCN)C(=O)N[C@@H](C)C(=O)N[C@@H](CO)C(=O)N[C@@H](CCCCN)C(=O)N[C@H](C(=O)N[C@@H](Cc1ccccc1)C(=O)NCC(=O)N[C@@H](C)C(=O)N[C@H](C(=O)N[C@@H](Cc1ccccc1)C(=O)NCC(=O)N[C@@H](CCCCN)C(=O)N[C@H](C(=O)O)C(C)C)C(C)C)C(C)C)C(C)C)C(C)C : ≥ 60.1 µM
CC(C)C[C@H](NC(=O)[C@H](CCCCN)NC(=O)[C@H](Cc1ccccc1)NC(=O)[C@@H](NC(=O)[C@H](C)NC(=O)[C@@H]1CCCN1C(=O)[C@@H](N)CC(C)C)C(C)C)C(=O)N[C@@H](C)C(=O)N[C@@H](CO)C(=O)N[C@@H](CCCCN)C(=O)N[C@H](C(=O)N[C@@H](Cc1ccccc1)C(=O)N1CCC[C@H]1C(=O)N[C@@H](C)C(=O)N[C@H](C(=O)N[C@@H](Cc1ccc(O)cc1)C(=O)N[C@@H](CS)C(=O)N[C@@H](CCCCN)C(=O)N[C@@H](C)C(=O)N[C@@H](CO)C(=O)O)C(C)C)C(C)C : ≥ 120 µM

Prompt: Recorded MIC for `CC(C)C[C@H](NC(=O)[C@@H](N)Cc1ccccc1)C(=O)NCC(=O)N[C@@H](CCCCN)C(=O)N[C@H](C(=O)N[C@@H](Cc1ccccc1)C(=O)N[C@@H](CCCCN)C(=O)N[C@@H](CCCCN)C(=O)N[C@@H](C)C(=O)N[C@@H](CO)C(=O)N[C@@H](CCCCN)C(=O)N[C@H](C(=O)N[C@H](C(=O)N1CCC[C@H]1C(=O)N[C@@H](C)C(=O)N[C@H](C(=O)N[C@@H](Cc1ccccc1)C(=O)NCC(=O)N[C@@H](CCCCN)C(=O)N[C@H](C(=O)O)C(C)C)C(C)C)C(C)C)C(C)C)C(C)C` , please?
Response: ≥ 119 µM

Prompt: Next record, please: `CSCC[C@H](NC(=O)[C@@H](N)Cc1ccccc1)C(=O)N[C@@H](CCCCN)C(=O)N[C@H](C(=O)N[C@@H](CC(C)C)C(=O)N[C@@H](C)C(=O)N[C@H](C(=O)N[C@@H](Cc1ccccc1)C(=O)NCC(=O)N[C@@H](CO)C(=O)N[C@H](C(=O)N[C@H](C(=O)N[C@H](C(=O)N[C@@H](CO)C(=O)N[C@@H](C)C(=O)N1CCC[C@H]1C(=O)N[C@@H](CCCCN)C(=O)N[C@@H](C)C(=O)N[C@@H](CO)C(=O)N[C@@H](CCCCN)C(=O)O)[C@@H](C)O)C(C)C)C(C)C)C(C)C)C(C)C`
Response: ≥ 124 µM

Prompt: Next record, please: `CC[C@H](C)[C@H](NC(=O)[C@@H](NC(=O)CN)C(C)C)C(=O)N[C@@H](CC(=O)O)C(=O)N[C@@H](C)C(=O)N[C@@H](C)C(=O)N[C@@H](CCCCN)C(=O)N[C@@H](CCCCN)C(=O)N[C@H](C(=O)N[C@H](C(=O)N[C@@H](CC(N)=O)C(=O)N[C@H](C(=O)N[C@@H](CC(C)C)C(=O)N[C@@H](CCCCN)C(=O)N[C@@H](CC(N)=O)C(=O)N[C@@H](CC(C)C)C(=O)N1CCC[C@H]1C(N)=O)C(C)C)C(C)C)C(C)C`
Response: 14.1 µM
